conditions: 303.15 K; 100 kPa; Liquid; Concentric cylinders viscometry
So basically: is viscosity under 80 mPa·s? Then YES. Not under? Then NO.

Find out if reported viscosity for CCCCn1cc[n+](C)c1.COP(=O)([O-])OC [1-butyl-3-methyl-1H-imidazolium dimethylphosphate] is less than 80 mPa·s
NO

Find out if reported viscosity for CC(=O)[O-].CCCCn1cc[n+](C)c1 [1-butyl-3-methylimidazolium acetate] is less than 80 mPa·s
NO

Find out if reported viscosity for CCCCn1cc[n+](C)c1.N#CN=C=[N-] [1-butyl-3-methylimidazolium dicyanamide] is less than 80 mPa·s
YES

Find out if reported viscosity for CCCCn1cc[n+](C)c1.N#C[S-] [1-butyl-3-methylimidazolium thiocyanate] is less than 80 mPa·s
YES

Find out if reported viscosity for CCCCn1cc[n+](C)c1.F[B-](F)(F)F [1-butyl-3-methylimidazolium tetrafluoroborate] is less than 80 mPa·s
NO
